assay: chemical genetic growth profiling, strain panel (AID 1159580);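 further: tested at 20 µM; growth read once vehicle control cultures reached saturation at 30 °C; lower values mean less growth of the strain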; conditions: S. cerevisiae deletion strains, growth OD, locus YHR205W, strain SCH9
Hit rate of the full screen: of about 5,500 compounds, about 2,000 (36%) were called active. Another 18% or so got no clear call; they are omitted. No stated cut-off is given here; in the data, active means normalized growth mostly below about 0.91 (no sharp cut-off); inconclusive means no clear call, values can overlap the other calls; inactive means mostly above about 0.92. This is one part of the list.
Hello, when you answer, please use one of the following outcomes: active, inactive

Call for entry O=C(NNc1ccc(I)cc1)c1cc(Cl)cc(Cl)c1 :
inactive

Recorded call for O=C(Nc1ccc(OC(F)(F)F)cc1)OC1CN(C(c2ccccc2)c2ccccc2)C1 ?
inactive

GET /call?item= O=C(Nc1ccc(OC(F)(F)F)cc1)N1CCN(c2nc(-c3ccccc3)ns2)CC1 returns the recorded outcome of this test.
active

Returns: the outcome recorded for CC(=O)ON=C1c2cc([N+](=O)[O-])ccc2-c2ccc([N+](=O)[O-])cc21 in this assay.
inactive

Dear all, I need the recorded test outcome for CC(C)(C)c1ccc(C(=O)Nc2ccc(C(F)(F)F)cc2)s1 , thank you.
inactive

Fill in: this test's call for CC(C)(CCC(C)(C)N1C(=O)c2cccc3cccc(c23)C1=O)N1C(=O)c2cccc3cccc(c23)C1=O is ___
active

Outcome logged for Cc1onc(-c2c(F)cccc2Cl)c1C(=O)ON=C1C2CC3CC(C2)CC1C3 in this assay:
inactive

Outcome logged for CCCCN(C)C(=O)c1cc([N+](=O)[O-])cc2c1-c1ccc([N+](=O)[O-])cc1C2=C(C#N)C#N in this assay:
inactive

Lab log entry: CCCCCCCCCCCC(=O)NOC(=O)c1c(-c2c(Cl)cccc2Cl)noc1C — outcome as called in the assay?
inactive

Just curious, what result did Cc1c(C(=S)Nc2ccccc2)sc2ccccc12 get here?
inactive

Recorded test call requested for Cc1ccc(NNC(=O)c2c(C)noc2C)cc1Cl
inactive

Per the assay record, what outcome was assigned to O=[N+]([O-])c1ccc2oc(C(O)c3ccc(-c4ccccc4)cc3)cc2c1 (stereo not drawn) ?
inactive

# lookup: test call for COC(=O)c1sccc1-c1ccc(/C=C/[N+](=O)[O-])o1
active
